Recorded values, source patent US20190055231A1.

- assayNotes: Rat single dose PK study
- Type: in vivo
- conditions: Wistar, plasma, oral, 1 mg/kg, 4 h, free, read-out: Plasma concentration at 4 h, free
measuredParameter: concentration at 4 h (ng/mL)

A. C[C@]1(c2nc(NC(=O)c3ccc(C#N)cn3)ccc2F)N=C(N)O[C@H](C(F)(F)F)[C@@H]1F
B. Cc1cc(C#N)cnc1C(=O)Nc1ccc(F)c([C@@]2(C)N=C(N)O[C@H](C(F)(F)F)[C@@H]2F)n1
Q: Higher concentration at 4 h between A and B ? Response format: the label of the selected entry.
Ans: A

----------
- Tested on: Aβ40 in brain of wild-type mice
- assayNotes: Mouse acute in vivo model (inhibition of Aβ40 in brain of wild-type mice)
- conditions: single p.o. dose 10 mg/kg, 4 h post dose
- Protocol: Mouse Acute In Vivo Model (Inhibition of Aβ40 in Brain of Wild-Type Mice) Single Dose Efficacy in Mice The mouse single dose efficacy was measured in brain homogenate from C57Bl/6J wildtype mice after DEA extraction as described in H. Hilpert et al., J. Med. Chem. 2013, 56, 3980-3995 (dx.doi.org/10.1021/jm400225m). […] Aβ40 lowering was determined after oral administration in wild-type mice (C57Bl/6J mice, n=3-4) 4 h post dosing. […]
Each entry below carries its reported Brain Aβ-lowering 10 mg/kg.
Express your answer in %, writing the number without its unit.

Q: Item under review: Cc1cc(C#N)cnc1C(=O)Nc1ccc(F)c([C@]2(C)C[C@@H](C(F)(F)F)OC(N)=N2)n1 [Comparator 5] . Reported Brain Aβ-lowering 10 mg/kg?
Ans: 70

Q: Item under review: Cc1cc(C#N)cnc1C(=O)Nc1ccc(F)c([C@@]2(C)N=C(N)O[C@H](C(F)(F)F)C2(F)F)n1 [Comparator 2] . Reported Brain Aβ-lowering 10 mg/kg?
Ans: 42

Q: Item under review: C[C@]1(c2nc(NC(=O)c3ccc(C#N)cn3)ccc2F)N=C(N)O[C@H](C(F)(F)F)[C@@H]1F [Comparator 6] . Reported Brain Aβ-lowering 10 mg/kg?
Ans: 94

Q: Item under review: Cc1cc(C#N)cnc1C(=O)Nc1ccc(F)c([C@@]2(C)N=C(N)O[C@H](C(F)(F)F)[C@@H]2F)n1 [Example 1] . Reported Brain Aβ-lowering 10 mg/kg?
Ans: 92

Q: Item under review: C[C@]1(c2nc(NC(=O)c3ccc(C#N)cn3)ccc2F)N=C(N)O[C@H](C(F)(F)F)C1(F)F [Comparator 1] . Reported Brain Aβ-lowering 10 mg/kg?
Ans: 4
